TESTED_TARGET: hAC8 (Homo sapiens)
Construct: expressed in transfected cells
Sequence (P40145 whole entry): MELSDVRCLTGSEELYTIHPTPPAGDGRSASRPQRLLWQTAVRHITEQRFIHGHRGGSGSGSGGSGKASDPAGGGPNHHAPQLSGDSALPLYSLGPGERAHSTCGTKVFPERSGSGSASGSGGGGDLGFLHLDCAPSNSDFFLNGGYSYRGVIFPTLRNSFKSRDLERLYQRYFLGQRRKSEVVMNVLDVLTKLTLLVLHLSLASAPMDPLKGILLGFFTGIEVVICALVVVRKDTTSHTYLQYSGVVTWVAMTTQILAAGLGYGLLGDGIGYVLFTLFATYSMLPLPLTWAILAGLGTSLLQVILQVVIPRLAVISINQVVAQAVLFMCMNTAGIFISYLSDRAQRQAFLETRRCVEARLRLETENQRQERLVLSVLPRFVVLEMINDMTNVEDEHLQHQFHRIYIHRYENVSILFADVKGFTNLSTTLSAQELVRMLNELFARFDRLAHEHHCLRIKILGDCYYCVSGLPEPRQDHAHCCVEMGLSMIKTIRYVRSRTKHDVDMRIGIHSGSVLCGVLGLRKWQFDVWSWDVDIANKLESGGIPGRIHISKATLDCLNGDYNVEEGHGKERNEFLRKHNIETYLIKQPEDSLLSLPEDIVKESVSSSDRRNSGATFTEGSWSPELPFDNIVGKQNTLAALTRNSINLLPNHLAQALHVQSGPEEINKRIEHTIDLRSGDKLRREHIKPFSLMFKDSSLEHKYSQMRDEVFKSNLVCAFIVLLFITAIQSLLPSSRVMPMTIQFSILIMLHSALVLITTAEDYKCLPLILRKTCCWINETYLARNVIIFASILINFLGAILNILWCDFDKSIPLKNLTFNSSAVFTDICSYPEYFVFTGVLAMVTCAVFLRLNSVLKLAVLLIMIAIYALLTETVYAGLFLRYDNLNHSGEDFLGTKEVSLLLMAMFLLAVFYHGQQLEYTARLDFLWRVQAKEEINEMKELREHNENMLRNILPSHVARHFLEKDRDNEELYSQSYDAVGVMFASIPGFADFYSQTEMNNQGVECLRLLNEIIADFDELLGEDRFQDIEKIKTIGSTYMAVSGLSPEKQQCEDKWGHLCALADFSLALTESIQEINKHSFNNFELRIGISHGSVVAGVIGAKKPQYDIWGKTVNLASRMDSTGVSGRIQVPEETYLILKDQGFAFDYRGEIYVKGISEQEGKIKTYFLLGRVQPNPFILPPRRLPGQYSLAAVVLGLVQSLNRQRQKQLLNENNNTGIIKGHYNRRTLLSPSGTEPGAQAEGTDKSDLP
MEASUREMENT_PROTOCOL: Cyclic AMP accumulation in HEK cells stably expressing AC8, stimulated with A23187 (HTRF)
Assay type: cell-based
CONDITIONS: HEK-AC8 cells; read-out: HEK-AC8 IC50
Experimental: Fresh powders of several robust inhibitors (>90% inhibition) were evaluated in multiple confirmation assays assessing the dose response relationship for inhibiting AC1 and AC8 activity. […] The primary technology we employed to measure cAMP accumulation was a homogenous time-resolved fluorescence (HTRF) assay, the same technology utilized in the primary screen. […] Cyclic AMP accumulation was measured as previously described (Brust, et al., J. Pharmacol. Exp. Ther. 352, 480-493(2015)). […]
Below is a list of entries, each paired with its recorded IC50 value.

{"COMPOUND": "Cc1cc(C(=O)Nc2nnc(-c3ccc4c(c3)CCCC4)o2)cc(C(F)(F)F)c1 [AC10072]", "IC50 / µM": 2.4}
{"COMPOUND": "Cc1ccc(C(=O)Nc2nnc(-c3ccc(F)cc3)o2)cc1 [AC10031]", "IC50 / µM": 61}
{"COMPOUND": "O=C(Nc1nnc(-c2ccc3c(c2)OCCO3)o1)c1ccc(Br)cc1 [AC10015]", "IC50 / µM": 23}
{"COMPOUND": "Cc1ccc(C(=O)Nc2nnc(-c3ccc(F)cc3)o2)cc1C(F)(F)F [AC10067]", "IC50 / µM": 9}
{"COMPOUND": "CC(C)Oc1ccc(C(=O)Nc2nnc(-c3ccc4c(c3)CCCC4)o2)cc1 [AC10010]", "IC50 / µM": 12.6}
